Tested on: FaDu human head and neck cancer xenograft
Experiment: Xenograft model of anti-NTSR1 ADCs (head and neck cancer)
Format: in vivo, male NOD SCID mice
Conditions: 5 mpk, IV, BIW × 3; Day 14
# key: entry, value: TGI % (1-T/C) Day 14
Give the quantity in %, number only.

[[record]]
molecule = "αNTSR1 (AKT2 Hu/Hd) 4seco-DUBA: antibody-drug conjugate of humanized antibody AKT2 HuHd with seco-DUBA payload (conjugate) heavy chain: QVQLVQSGAEVKKPGASVKVSCKASGYAFTSSWIHWVRQAPGQGLEWMGQIRPNSGNTYYNEKFKVRVTMTRDTSTSTVYMELSSLRSEDTAVYYCARYHYGFDYWGQGTLVTVSS light chain: DIQMTQSPSSLSASVGDRVTITCRSSQSIVHSNGNTYLEWYQQKPGKAPKLLIYKVSNRFSGVPSRFSGSGSGTDFTLTISSLQPEDFATYYCFQGAHLPWTFGQGTKVEIK"
measured = 65.2


Shifting focus to the molecule that follows.
Request: Tell me the measured TGI % (1-T/C) Day 14 of αNTSR1 (AKT2 Hu/Hu) 4seco-DUBA: antibody-drug conjugate of humanized antibody AKT2 HuHu with seco-DUBA payload (conjugate) heavy chain: QVQLVQSGAEVKKPGASVKVSCKASGYAFTSSWIHWVRQAPGQGLEWMGQIRPNSGNTYYNEKFKVRVTMTRDTSTSTVYMELSSLRSEDTAVYYCARYHYGFDYWGQGTLVTVSS light chain: DIVMTQTPLSLSVTPGQPASISCRSSQSIVHSNGNTYLEWYLQKPGQSPQLLIYKVSNRFSGVPDRFSGSGSGTDFTLKISRVEAEDVGVYYCFQGAHLPWTFGQGTKVEIK , please.
Response: 83.8
